- System: TUR (Acute Myeloid Leukemia)
- assay: combination Emax (second highest fraction inhibited in the dose matrix, 72 h); higher = more inhibition; extreme values may be limits of the assay
metric: combination Emax

# count of solved cases: 2
molecule: CS(=O)(=O)CCNCc1ccc(-c2ccc3ncnc(Nc4ccc(OCc5cccc(F)c5)c(Cl)c4)c3c2)o1 [Lapatinib] + C[C@@H](Oc1cc(-c2cnn(C3CCNCC3)c2)cnc1N)c1c(Cl)ccc(F)c1Cl [Crizotinib] (first compound max 10 µM, 7x7, partner max 10 µM)
testedTarget: TUR (Acute Myeloid Leukemia)
combination Emax: 0.59
//
molecule: COc1cc2c(cc1OCCCCCOc1cc3c(cc1OC)C(=O)N1C=C(C)C[C@H]1C=N3)N=C[C@@H]1CC(C)=CN1C2=O [SG3199] + O=C(c1cc(Cc2n[nH]c(=O)c3ccccc23)ccc1F)N1CCN(C(=O)C2CC2)CC1 [Olaparib] (first compound max 0.001 µM, 7x7, partner max 10 µM)
testedTarget: TUR (Acute Myeloid Leukemia)
combination Emax: 0.112

Problem: Need combination Emax of COc1nnc2ccc(N3CCC(c4ccc(OCCN5CCN(C)C(=O)[C@H]5C)cc4)CC3)nn12 [AZD5153] + CN(CC[C@H](CSC1=CC=CC=C1)NC2=C(C=C(C=C2)S(=O)(=O)NC(=O)C3=CC=C(C=C3)N4CCC(CC4)[C@H](C5=CC=CC=C5C6=CC=C(C=C6)Cl)O)S(=O)(=O)C(F)(F)F)CCO [AZD4320] (first compound max 1 µM, 7x7, partner max 1 µM) , thanks.
Result: 0.626
